Property: GLP1 secretion stimulation; scope: individual compounds
Assay: glucagon-like peptide 1 release enhancers, primary assay, NCI-H716 cell line, NPC library (AID 1117341); further: reference of the scale not given here
Details: NCI-H716 cells, at 10 µM, stronger effect = higher value
Express your answer in %, writing the number without its unit.

Below, 3 compounds whose answers are already recorded.
compound=CCc1cc2cc(OC)c(OC)cc2c(Cc2ccccc2)n1 property="GLP1 secretion stimulation" unit_name=% recorded_number=3.6
compound=CN(C)[C@@H]1C(=O)C(C(N)=O)=C(O)[C@@]2(O)C(=O)C3=C(O)c4c(O)cccc4C[C@H]3C[C@@H]12 property="GLP1 secretion stimulation" unit_name=% recorded_number=18.7
compound=CC[C@@]1(c2ccccc2)NC(=O)N(C)C1=O property="GLP1 secretion stimulation" unit_name=% recorded_number=-0.6

Reported GLP1 secretion stimulation for `O=C1NC(=O)C(c2ccccc2)(c2ccccc2)N1` : what is it?
3.3

Now try `CC(=O)CC/C=C(\C)CC/C=C(\C)CC/C=C(\C)CCC=C(C)C` .
-1.7

Now try `O=C(Nc1ccc(Oc2ccc(Cl)cc2)c(Cl)c1)c1cc(I)cc(I)c1O` .
29.8

Now try CCN(CC)C(=O)C1CN2CCc3cc(OC)c(OC)cc3C2CC1OC(C)=O (stereo unspecified) .
10.9

Now try `Cc1cc(OCCOCC[N+](C)(C)Cc2ccccc2)ccc1C(C)(C)CC(C)(C)C` .
98.1

Now try `CC1(C)O[C@@H]2[C@@H](CO[C@@]3(COS(N)(=O)=O)OC(C)(C)O[C@@H]23)O1` .
-0.1

Now try `O=C(Nc1ccc(Br)cc1)c1cc(Br)c(Br)s1` .
-2

Now try `NC(=Nc1ccccc1)Nc1ccccc1` .
2.8

====

Experiment: modulators of glucocorticoid suppression of NF-kB, cell-based, luciferase, IL-1B stimulus, dexamethasone (AID 624486)
Settings: NF-kB luciferase reporter, IL-1B + dexamethasone, luminescence; measured here: IL-1B alone, no Dex
Think of 0.4 as a floor: if z-score stands on it or above, it is yes; beneath it, no.

Would you please look over these solved cases?
structure=COc1ccccc1Oc1nccc(-c2c(-c3ccc(F)cc3)ncn2C2CCNCC2)n1 answer_label=no
structure=O=C1NC(=NCCc2ccccc2F)SC1=Cc1ccc2ncccc2c1 answer_label=no
structure=COc1cccc(F)c1C(=O)c1cnc(NC2CCN(S(C)(=O)=O)CC2)nc1N answer_label=yes
structure=COc1ccc2ncn(-c3cc(O[C@H](C)c4ccccc4Cl)c(C(N)=O)s3)c2c1 answer_label=no
structure=O=C1NC(=O)C(c2ccccc2Cl)=C1Nc1cc(Cl)c(O)c(Cl)c1 answer_label=yes
structure=COC(=O)Nc1nc2ccc(Oc3cccc(NC(=O)Nc4cc(C(F)(F)F)ccc4F)c3)cc2[nH]1 answer_label=yes
structure=Cn1cc(C2=C(c3cn(C)c4ccc(OCc5ccccc5)cc34)C(=O)NC2=O)c2ccccc21 answer_label=no
structure=NS(=O)(=O)c1ccc(N=Nc2c(O)[nH]c3ccc(-c4cnco4)cc23)cc1 answer_label=no

Does the reported z-score for `O=C1NC(=O)C(c2cccc(Cl)c2)=C1Nc1ccc(O)c(Cl)c1` fall at or above the 0.4 mark?
yes

Now try `CN(C)CCNC(=O)Nc1ccc(N(C)c2ccnc(Nc3ccc(CS(C)(=O)=O)cc3)n2)cc1` .
no
